What follows is a record of pKi for UniProt P28705.
Kindly note that pKi refers to -log10 of the concentration in mol/L and answer with the value alone.

Consider the reported pKi for these compounds:
# compound, measurement_target, pKi
data = [
    ("C/C(=C/C=C(F)/C(C)=C/C(=O)O)c1cc(C(C)(C)C)cc(C(C)(C)C)c1OCC(F)F [Example 1]", "UniProt P28705", 7.68),
    ("C/C(=C/C(F)=C/C(C)=C/C(=O)O)c1cc(C(C)(C)C)cc(C(C)(C)C)c1OCC(F)F [Example 2]", "UniProt P28705", 7.54),
    ("CCCCOc1c(\\C(C)=C/C=C/C(=C\\C(=O)O)C(F)(F)F)cc(C(C)C)cc1C(C)C [Example 4]", "UniProt P28705", 6.06),
]

Now turn to the next compound.
Per the records, this compound ( CCOc1c(\C(=C/C=C/C(C)=C/C(=O)O)C(F)(F)F)cc(C(C)(C)C)cc1C(C)(C)C [Example 5] ) has pKi equal to 6.74
